experiment: Half life in db/db mouse at 30 mg/kg, po qd; format: ADME, organism-based; conditions: in vivo
Task for the reader: assign each of the following molecules its reported half-life.
Value expressed in h; do not type the unit.

For the molecule O=C1C(F)CCN1CC(O)Cn1c2ccc(F)cc2c2cc(F)ccc21 (stereo not drawn) , report half-life.
2.97

For the molecule CC1CN(CC(O)Cn2c3ccc(F)cc3c3cc(F)ccc32)C(=O)N1 (stereo not drawn) , report half-life.
2.58

For the molecule COC1CCCN(CC(O)Cn2c3ccc(F)cc3c3cc(F)ccc32)C1=O (stereo not drawn) , report half-life.
2.16

For the molecule O=C1C2CCC(C2)N1CC(O)Cn1c2ccc(F)cc2c2cc(F)ccc21 (stereo not drawn) , report half-life.
2.14

For the molecule CN1CCCN(CC(O)Cn2c3ccc(F)cc3c3cc(F)ccc32)C1=O (stereo not drawn) , report half-life.
2.57

For the molecule O=C1NCCCN1CC(O)Cn1c2ccc(F)cc2c2cc(F)ccc21 (stereo not drawn) , report half-life.
2.39

For the molecule O=C1NCCN1CC(O)Cn1c2ccc(F)cc2c2cc(F)ccc21 (stereo not drawn) , report half-life.
2.83

For the molecule O=C1CCCN1CC(O)Cn1c2ccc(F)cc2c2cc(F)ccc21 (stereo not drawn) , report half-life.
2.95

---

target: CRY2/PER2 (Homo sapiens, UniProt O15055+Q49AN0); test: Modulation activity at CRY2/PER2 in human U2OS cells harboring per2-dLuc assessed as activation of per2 activity measured every 100 mins for 5 days by luciferase reporter gene assay; assay type: cell-based
Measurement Label: pEC50
Formally, pEC50 is defined as -log10 of the concentration c, with c in mol/L.

For the compound O=C1N(CC(O)Cn2c3ccc(F)cc3c3cc(F)ccc32)CCCC1(F)F (stereo not given) , report pEC50.
6.71

For the compound CC1CCN(CC(O)Cn2c3ccc(F)cc3c3cc(F)ccc32)C(=O)C1 (stereo not given) , report pEC50.
6.89

For the compound CC(C)C1CCN(CC(O)Cn2c3ccc(F)cc3c3cc(F)ccc32)C1=O (stereo not given) , report pEC50.
6.58

For the compound O=C1c2ccccc2CCN1CC(O)Cn1c2ccc(F)cc2c2cc(F)ccc21 (stereo not given) , report pEC50.
5.87

For the compound O=C1N(CC(O)Cn2c3ccc(F)cc3c3cc(F)ccc32)CCCN1c1ccccc1 (stereo not given) , report pEC50.
6.77

---

Task for the reader: assign each of the following compounds its reported EC50.
Molecular target: CRY2/PER2 (Homo sapiens, UniProt O15055+Q49AN0)
Sequence (O15055 whole entry): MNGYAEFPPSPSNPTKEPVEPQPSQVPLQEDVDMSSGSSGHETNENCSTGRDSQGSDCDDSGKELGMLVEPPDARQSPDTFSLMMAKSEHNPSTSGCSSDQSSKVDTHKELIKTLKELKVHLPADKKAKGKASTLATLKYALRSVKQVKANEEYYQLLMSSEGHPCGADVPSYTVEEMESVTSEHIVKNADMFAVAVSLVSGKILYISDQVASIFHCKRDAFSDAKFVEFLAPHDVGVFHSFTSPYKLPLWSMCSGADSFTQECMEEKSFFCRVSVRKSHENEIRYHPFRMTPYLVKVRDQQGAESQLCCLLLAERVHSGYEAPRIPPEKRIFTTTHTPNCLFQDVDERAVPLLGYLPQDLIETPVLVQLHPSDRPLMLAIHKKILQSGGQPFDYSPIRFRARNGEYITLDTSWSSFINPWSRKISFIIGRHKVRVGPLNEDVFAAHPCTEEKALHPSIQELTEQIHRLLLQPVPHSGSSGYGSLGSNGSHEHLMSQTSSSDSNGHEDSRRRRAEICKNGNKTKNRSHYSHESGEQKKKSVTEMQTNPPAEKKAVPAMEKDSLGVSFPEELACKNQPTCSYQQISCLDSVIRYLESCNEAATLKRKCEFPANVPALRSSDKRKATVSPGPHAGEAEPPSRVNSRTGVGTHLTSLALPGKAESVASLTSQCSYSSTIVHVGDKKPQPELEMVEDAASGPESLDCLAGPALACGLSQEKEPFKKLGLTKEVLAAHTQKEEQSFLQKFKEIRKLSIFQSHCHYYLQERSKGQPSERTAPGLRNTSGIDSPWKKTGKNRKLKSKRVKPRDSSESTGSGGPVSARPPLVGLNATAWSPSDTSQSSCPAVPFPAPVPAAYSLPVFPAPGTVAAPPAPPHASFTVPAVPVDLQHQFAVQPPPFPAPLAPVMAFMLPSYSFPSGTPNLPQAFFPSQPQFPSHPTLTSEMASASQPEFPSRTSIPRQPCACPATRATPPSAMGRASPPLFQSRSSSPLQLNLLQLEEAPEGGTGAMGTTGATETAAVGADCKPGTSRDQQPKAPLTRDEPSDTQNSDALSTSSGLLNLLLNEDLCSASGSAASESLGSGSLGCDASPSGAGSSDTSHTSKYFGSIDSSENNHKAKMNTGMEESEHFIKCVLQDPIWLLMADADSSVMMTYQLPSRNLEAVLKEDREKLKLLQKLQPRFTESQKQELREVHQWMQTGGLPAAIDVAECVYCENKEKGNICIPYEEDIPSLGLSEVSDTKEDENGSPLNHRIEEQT
Sequence (Q49AN0 whole entry): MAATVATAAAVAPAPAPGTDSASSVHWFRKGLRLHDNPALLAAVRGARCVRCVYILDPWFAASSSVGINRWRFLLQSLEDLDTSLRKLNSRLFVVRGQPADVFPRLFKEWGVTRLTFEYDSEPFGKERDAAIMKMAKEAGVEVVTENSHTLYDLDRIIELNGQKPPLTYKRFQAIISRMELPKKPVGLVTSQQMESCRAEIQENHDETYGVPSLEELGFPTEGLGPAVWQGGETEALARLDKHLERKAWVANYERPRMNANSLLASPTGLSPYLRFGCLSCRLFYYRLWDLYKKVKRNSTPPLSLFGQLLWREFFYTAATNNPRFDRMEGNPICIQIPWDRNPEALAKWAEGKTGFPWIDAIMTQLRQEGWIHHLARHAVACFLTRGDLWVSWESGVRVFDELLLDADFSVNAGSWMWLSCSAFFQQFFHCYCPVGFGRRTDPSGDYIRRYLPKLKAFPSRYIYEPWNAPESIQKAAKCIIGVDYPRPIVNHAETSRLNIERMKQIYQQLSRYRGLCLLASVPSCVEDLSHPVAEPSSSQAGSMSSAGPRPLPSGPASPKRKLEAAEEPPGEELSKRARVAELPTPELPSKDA
Assay: Modulation activity at CRY2/PER2 in human U2OS cells harboring per2-dLuc assessed as activation of per2 activity measured every 100 mins for 5 days by luciferase reporter gene assay
Value expressed in nM; do not type the unit.

Enter recorded EC50 with CRY2/PER2 (Homo sapiens, UniProt O15055+Q49AN0) for O=C1C2CCC(C2)N1CC(O)Cn1c2ccc(F)cc2c2cc(F)ccc21 (stereo not given) here.
163

Enter recorded EC50 with CRY2/PER2 (Homo sapiens, UniProt O15055+Q49AN0) for O=C1COCCN1CC(O)Cn1c2ccc(F)cc2c2cc(F)ccc21 (stereo not given) here.
447

Enter recorded EC50 with CRY2/PER2 (Homo sapiens, UniProt O15055+Q49AN0) for O=C1NCCCN1CC(O)Cn1c2ccc(F)cc2c2cc(F)ccc21 (stereo not given) here.
188

Enter recorded EC50 with CRY2/PER2 (Homo sapiens, UniProt O15055+Q49AN0) for COC1CNC(=O)N(CC(O)Cn2c3ccc(F)cc3c3cc(F)ccc32)C1 (stereo not given) here.
1120

Enter recorded EC50 with CRY2/PER2 (Homo sapiens, UniProt O15055+Q49AN0) for O=C1c2ccccc2CN1CC(O)Cn1c2ccc(F)cc2c2cc(F)ccc21 (stereo not given) here.
1490

Enter recorded EC50 with CRY2/PER2 (Homo sapiens, UniProt O15055+Q49AN0) for CN1CCN(CC(O)Cn2c3ccc(F)cc3c3cc(F)ccc32)C1=O (stereo not given) here.
406

Enter recorded EC50 with CRY2/PER2 (Homo sapiens, UniProt O15055+Q49AN0) for O=C1N(CC(O)Cn2c3ccc(F)cc3c3cc(F)ccc32)CCN1c1ccccc1 (stereo not given) here.
528

Enter recorded EC50 with CRY2/PER2 (Homo sapiens, UniProt O15055+Q49AN0) for O=C1N(CC(O)Cn2c3ccc(F)cc3c3cc(F)ccc32)CCC1(F)F (stereo not given) here.
716

Enter recorded EC50 with CRY2/PER2 (Homo sapiens, UniProt O15055+Q49AN0) for O=C1OCCCN1CC(O)Cn1c2ccc(F)cc2c2cc(F)ccc21 (stereo not given) here.
4980

Enter recorded EC50 with CRY2/PER2 (Homo sapiens, UniProt O15055+Q49AN0) for O=C1C(c2ccccc2)CCN1CC(O)Cn1c2ccc(F)cc2c2cc(F)ccc21 (stereo not given) here.
487

---

Task for the reader: assign each of the following compounds its reported EC50.
molecular target: CRY2/PER2 (Homo sapiens, UniProt O15055+Q49AN0); experiment: Modulation activity at CRY2/PER2 in human U2OS cells harboring per2-dLuc assessed as activation of per2 activity measured every 100 mins for 5 days by luciferase reporter gene assay
Value expressed in nM; do not type the unit.

For the compound CC1CCCC(=O)N1CC(O)Cn1c2ccc(F)cc2c2cc(F)ccc21 (stereo not given) , report EC50.
541

For the compound O=C1C2CC2CN1CC(O)Cn1c2ccc(F)cc2c2cc(F)ccc21 (stereo not given) , report EC50.
246

For the compound O=C1Cc2ccccc2N1CC(O)Cn1c2ccc(F)cc2c2cc(F)ccc21 (stereo not given) , report EC50.
3730

For the compound CC1CCC(=O)N(CC(O)Cn2c3ccc(F)cc3c3cc(F)ccc32)C1 (stereo not given) , report EC50.
224

For the compound COC1CC(=O)N(CC(O)Cn2c3ccc(F)cc3c3cc(F)ccc32)C1 (stereo not given) , report EC50.
1140
